# Test system: acute HIV infection of T-lymphoid cells
# protocolNotes: Assay for inhibition of HIV replication (spread assay)
# Type: cell-based, HIV-1
# details: Human immunodeficiency virus 1, T-lymphoid; read-out: Spread - IC95
readoutName: IC95 (nM)
Return type: number; implicit unit nM.

Below are worked cases with known answers.
compound	targetEntity	number
COC(=O)N[C@H](C(=O)N[C@H](CCC[C@@H](CO)N(C(C)C)S(=O)(=O)c1ccc(N)cc1)C(C)C)C(c1ccccc1)c1ccccc1	acute HIV infection of T-lymphoid cells	148
COC(=O)N[C@H](C(=O)N[C@H](CCC[C@@H](CO)N(CCC(C)C)S(=O)(=O)c1ccc(CO)cc1)C(C)(C)C)C(c1ccccc1)c1ccccc1	acute HIV infection of T-lymphoid cells	327

GET /values?item= COC(=O)N[C@H](C(=O)N[C@@H](C)CCC[C@@H](CO)N(C1CCC1)S(=O)(=O)c1ccc(CO)cc1)C(c1ccccc1)c1ccccc1 &system= acute HIV infection of T-lymphoid cells returns IC95: 137

GET /values?item= COC(=O)N[C@@H](Cc1ccccc1Cl)C(=O)N[C@H](CCC[C@@H](CO)N(CC(C)C)S(=O)(=O)c1ccc(CO)cc1)C1CC1 &system= acute HIV infection of T-lymphoid cells returns IC95: 155

FYI, the data here is from patent US20100093811A1.
